Every entry's value here was drawn from patent US11998595B2.

# Tested on: T cells (patient PBMCs)
# assay.protocol: T-cell proliferation assay (3H-thymidine) of patient PBMC/T cells with hTERT peptides or transfected DC
# Format: cell-based, human
# condition.description: patient Lung ca P3, GV1001-vaccinated, clinical non-responder, one time point
quantity.kind: proliferative T-cell response (SI)

These recorded examples may help you get a feel for the data.
>>> result("RTFVLRVRAQDPPPE (listed as Homo sapiens) [SEQ ID NO. 7]")
1.2
>>> result("AERLTSRVKALFSVL (listed as Homo sapiens) [SEQ ID NO. 9]")
0.8
>>> result("EARPALLTSRLRFIPK (listed as Homo sapiens) [GV1001]")
1.4
>>> result("RLTSRVKALFSVLNY (listed as Homo sapiens) [SEQ ID NO. 8]")
1.1

Proceeding to the next sequence to report its proliferative T-cell response (SI).
# lookup: proliferative T-cell response (SI) of ALFSVLNYERARRPGLLGASVLGLDDIHRA [SEQ ID NO. 1]
0.9
